Assay: In vivo pharmacokinetic evaluation in mouse
Set-up: species or system C57BL/6 female mice
Settings: female, C57BL/6, mouse, plasma, iv; mice, i.v. 1 mg/Kg
Give measured clearance for each item. Keep answers brief.
State the answer as a number, implicitly in mL/min/kg.

Consider the compound shown here: `CCCS(=O)(=O)c1ccc(Cl)c(C#Cc2cc(Cl)ccc2OCC(=O)O)c1` What is its recorded clearance? 16.7

Consider the compound shown here: `CC(C)S(=O)(=O)c1ccc(Cl)c(C#Cc2cc(Cl)ccc2OCC(=O)O)c1` What is its recorded clearance? 11.7

Consider the compound shown here: `CCCS(=O)(=O)c1ccc(F)c(C#Cc2cc(Cl)ccc2OCC(=O)O)c1` What is its recorded clearance? 6.67

Consider the compound shown here: `CCCS(=O)(=O)c1cccc(C#Cc2cc(Cl)ccc2OCC(=O)O)c1` What is its recorded clearance? 5

Consider the compound shown here: `O=C(O)COc1ccc(Cl)cc1C#Cc1ccc2c(c1)S(=O)(=O)c1ccccc1-2` What is its recorded clearance? 1.67

###

Target: CRTH2 (Homo sapiens, UniProt Q9Y5Y4)
Sequence (Q9Y5Y4 whole entry): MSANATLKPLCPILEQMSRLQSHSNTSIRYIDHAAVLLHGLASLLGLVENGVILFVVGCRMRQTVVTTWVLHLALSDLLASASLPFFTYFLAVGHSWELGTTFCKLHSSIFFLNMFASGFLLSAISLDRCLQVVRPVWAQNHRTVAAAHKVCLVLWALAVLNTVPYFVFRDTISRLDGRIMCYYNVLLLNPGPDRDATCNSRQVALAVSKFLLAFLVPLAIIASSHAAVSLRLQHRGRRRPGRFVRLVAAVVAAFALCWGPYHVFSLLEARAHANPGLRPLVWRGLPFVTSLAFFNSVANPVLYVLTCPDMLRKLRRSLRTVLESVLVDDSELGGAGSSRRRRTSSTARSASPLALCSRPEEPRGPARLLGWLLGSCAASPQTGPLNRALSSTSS
Test: Radioligand binding Scintillation Proximity Assay ([3H]PGD2, hCRTH2-CHO cell membranes)
Design: host or cells: CHO cells
Details: 1.5 nM [3H]PGD2, hCRTH2-CHO cell membranes, SPA
pIC50: −log10 of the molar value.
Outcome: t for pIC50 of at least 7; f for anything lower.

Could you please find out whether `CCCS(=O)(=O)c1ccc(Cl)c(C#Cc2cc(Cl)ccc2OCC(=O)O)c1` has pIC50 that meets 7 or exceeds it? t

Could you please find out whether `Cc1ccc(OCC(=O)O)c(C#Cc2ccccc2Cl)c1` has pIC50 that meets 7 or exceeds it? f

Could you please find out whether `O=C(O)COc1ccc(Cl)cc1C#Cc1ccccc1Cl` has pIC50 that meets 7 or exceeds it? t

Could you please find out whether `Cc1ccc(S(=O)(=O)CCCO)cc1C#Cc1cc(C#N)ccc1OCC(=O)O` has pIC50 that meets 7 or exceeds it? t

Could you please find out whether `Cc1ccc(S(=O)(=O)Cc2ccccc2)cc1C#Cc1cc(Cl)ccc1OCC(=O)O` has pIC50 that meets 7 or exceeds it? t

Could you please find out whether `CS(=O)(=O)c1ccc(N2CCCCC2)c(C#Cc2cc(Cl)ccc2OCC(=O)O)c1` has pIC50 that meets 7 or exceeds it? f

Could you please find out whether `Cc1ccc(S(=O)(=O)c2ccccc2)cc1C#Cc1cc(Cl)ccc1OCC(=O)O` has pIC50 that meets 7 or exceeds it? t

Could you please find out whether COC1(C)c2ccc(C#Cc3cc(Cl)ccc3OCC(=O)O)cc2S(=O)(=O)C1(C)C (centres unmarked) has pIC50 that meets 7 or exceeds it? t

Could you please find out whether `COCCNS(=O)(=O)c1ccc(C)c(C#Cc2cc(Cl)ccc2OCC(=O)O)c1` has pIC50 that meets 7 or exceeds it? t

Could you please find out whether `COCc1ccc(C#Cc2cc(Cl)ccc2OCC(=O)O)c(F)c1` has pIC50 that meets 7 or exceeds it? t

Could you please find out whether `CCN(CC)S(=O)(=O)c1ccc(C)c(C#Cc2cc(Cl)ccc2OCC(=O)O)c1` has pIC50 that meets 7 or exceeds it? t

Could you please find out whether `CN(C)C(=O)c1ccc(C#Cc2cc(Cl)ccc2OCC(=O)O)cc1` has pIC50 that meets 7 or exceeds it? t

Could you please find out whether `Cc1ccc(S(=O)(=O)C(C)C)cc1C#Cc1cc(C#N)ccc1OCC(=O)O` has pIC50 that meets 7 or exceeds it? t

Could you please find out whether `CCCN(C)S(=O)(=O)c1ccc(C)c(C#Cc2cc(Cl)ccc2OCC(=O)O)c1` has pIC50 that meets 7 or exceeds it? t

Could you please find out whether CCCS(=O)(=O)c1ccc(C)c(C#Cc2cc(Cl)ccc2OC(C)C(=O)O)c1 (centres unmarked) has pIC50 that meets 7 or exceeds it? t

Could you please find out whether `CCNS(=O)(=O)c1ccc(C)c(C#Cc2cc(Cl)ccc2OCC(=O)O)c1` has pIC50 that meets 7 or exceeds it? t

Could you please find out whether `CS(=O)(=O)c1ccc(F)c(C#Cc2cc(C#N)ccc2OCC(=O)O)c1` has pIC50 that meets 7 or exceeds it? t

Could you please find out whether `CCCN(CC)C(=O)c1ccc(C#Cc2cc(Cl)ccc2OCC(=O)O)cc1S(=O)(=O)C(C)C` has pIC50 that meets 7 or exceeds it? t

Could you please find out whether `O=C(O)COc1ccc(Cl)cc1C#Cc1ccc(NC(=O)c2ccccc2)cc1` has pIC50 that meets 7 or exceeds it? t

Could you please find out whether `Cc1ccc(S(N)(=O)=O)cc1C#Cc1cc(Cl)ccc1OCC(=O)O` has pIC50 that meets 7 or exceeds it? t

Could you please find out whether `Cc1ccc(S(=O)(=O)N(C)CC(C)C)cc1C#Cc1cc(Cl)ccc1OCC(=O)O` has pIC50 that meets 7 or exceeds it? t

Could you please find out whether `CS(=O)(=O)c1ccc(O)c(C#Cc2cc(Cl)ccc2OCC(=O)O)c1` has pIC50 that meets 7 or exceeds it? f

Could you please find out whether `O=C(O)COc1ccc(Cl)cc1C#Cc1ccc(Cl)s1` has pIC50 that meets 7 or exceeds it? f

Could you please find out whether `CS(=O)(=O)c1cc(C#Cc2cc(Cl)ccc2OCC(=O)O)ccc1-c1ccccc1Cl` has pIC50 that meets 7 or exceeds it? t

Could you please find out whether `O=C(O)COc1ccc(Cl)cc1C#Cc1ccccn1` has pIC50 that meets 7 or exceeds it? f

Could you please find out whether `O=C(O)COc1ccc(Cl)cc1C#Cc1ccc(NC(=O)c2ccc(C(F)(F)F)cc2)cc1` has pIC50 that meets 7 or exceeds it? f

Could you please find out whether `Cc1ccc(S(=O)(=O)CC(C)C)cc1C#Cc1cc(C#N)ccc1OCC(=O)O` has pIC50 that meets 7 or exceeds it? t

Could you please find out whether `CCCS(=O)(=O)c1ccc(F)c(C#Cc2cc(Cl)ccc2OCC(=O)O)c1` has pIC50 that meets 7 or exceeds it? t

Could you please find out whether CCCS(=O)(=O)c1ccc(F)c(C#Cc2cc(Cl)ccc2OC(C)C(=O)O)c1 (centres unmarked) has pIC50 that meets 7 or exceeds it? t

Could you please find out whether `CS(=O)(=O)c1cncc(C#Cc2cc(C#N)ccc2OCC(=O)O)c1` has pIC50 that meets 7 or exceeds it? f

Could you please find out whether `CC1(C)C(=O)c2ccc(C#Cc3cc(Cl)ccc3OCC(=O)O)cc2S1(=O)=O` has pIC50 that meets 7 or exceeds it? t
